Ref: PubChem BioAssay AID1919004

test system: 883617-216-R-J1-PDC complex spheroids, growth, % test/control; experiment: Anticancer human tumor 883617-216-R-J1-PDC patient-derived bladder carcinoma cell line growth inhibition [AhR]; conditions: second compound 1 µM; first compound 3.16 µM; hits give low values;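 further: exposure lasted 7 days after dosing on day 3 of spheroid growth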

{"compound": "Nc1ccn(C2OC(CO)C(O)C2(F)F)c(=O)n1 (stereo unspecified) + Cc1cncc(-c2nc(NCCc3c[nH]c4ccccc34)c3ncn(C(C)C)c3n2)c1", "viability, T/C, %": 41.9}
{"compound": "COc1cccc2c1C(=O)c1c(O)c3c(c(O)c1C2=O)CC(O)(C(=O)CO)CC3OC1CC(N)C(O)C(C)O1 (stereo unspecified) + Cc1ccccc1N=Nc1ccc(NC(=O)c2ccnn2C)c(C)c1", "viability, T/C, %": 0.12}
{"compound": "CC1(C)CCC(CN2CCN(c3ccc(C(=O)NS(=O)(=O)c4ccc(NCC5CCOCC5)c([N+](=O)[O-])c4)c(Oc4cnc5[nH]ccc5c4)c3)CC2)=C(c2ccc(Cl)cc2)C1 + CC(CO)NC(=O)c1cc(-c2ccc(Cl)cc2)nn(-c2cnn(C)c2)c1=O", "viability, T/C, %": 82.4}
{"compound": "COc1cccc2c1C(=O)c1c(O)c3c(c(O)c1C2=O)CC(O)(C(=O)CO)CC3OC1CC(N)C(O)C(C)O1 (stereo unspecified) + CC(CO)NC(=O)c1cc(-c2ccc(Cl)cc2)nn(-c2cnn(C)c2)c1=O", "viability, T/C, %": 2.44}
{"compound": "Nc1ccccc1NC(=O)c1ccc(CNC(=O)OCc2cccnc2)cc1 + CC(CO)NC(=O)c1cc(-c2ccc(Cl)cc2)nn(-c2cnn(C)c2)c1=O", "viability, T/C, %": 51.4}
{"compound": "Nc1ccn(C2OC(CO)C(O)C2(F)F)c(=O)n1 (stereo unspecified) + Cc1ccccc1N=Nc1ccc(NC(=O)c2ccnn2C)c(C)c1", "viability, T/C, %": 34.2}
